Biological target: T1, TNFR1 (Homo sapiens, UniProt P19438)
T1 chain: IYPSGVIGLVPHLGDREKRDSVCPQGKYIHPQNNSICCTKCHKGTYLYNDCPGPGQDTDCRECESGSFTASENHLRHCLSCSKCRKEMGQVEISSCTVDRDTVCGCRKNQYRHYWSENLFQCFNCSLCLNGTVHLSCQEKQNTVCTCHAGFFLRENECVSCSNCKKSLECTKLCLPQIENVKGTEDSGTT
Assay: yeast display SC50
Answer each item with its documented apparent Kd (screen).

Fill blank: measured apparent Kd (screen) of the binder E5A (designed binder) MTLQALLREEALRRAEAEAFRYALELLAEKFPEQKEYLLDLAEEIESQIRSLSGVDVEDVRKFLDKEWAWVKELLAEHPAELAEVEAARAARLAELRAEVEAKVAA is ____.
790 pM

Fill blank: measured apparent Kd (screen) of the binder E29K (designed binder) MTLQELLREEALRRAEAEAFRYALELLAKKFPEQKEYLLDLAEEIESQIRSLSGVDVEDVRKFLDKEWAWVKELLAEHPAELAEVEAARAARLAELRAEVEAKVAA is ____.
490 pM

Fill blank: measured apparent Kd (screen) of the binder A102N (designed binder) MTLQELLREEALRRAEAEAFRYALELLAEKFPEQKEYLLDLAEEIESQIRSLSGVDVEDVRKFLDKEWAWVKELLAEHPAELAEVEAARAARLAELRAEVENKVAA is ____.
539 pM

Fill blank: measured apparent Kd (screen) of the binder S53V (designed binder) MTLQELLREEALRRAEAEAFRYALELLAEKFPEQKEYLLDLAEEIESQIRSLVGVDVEDVRKFLDKEWAWVKELLAEHPAELAEVEAARAARLAELRAEVEAKVAA is ____.
2480 pM

Where do these numbers come from? They come from paper PMC12416549.
